- assay-details: log P by HPLC on a reversed-phase column (C 18), EEC Directive 79/831 Annex V.A8
- Format: physicochemical
- condition-notes: HPLC on reversed-phase column (C 18), 40° C., 0.1% aqueous formic acid and acetonitrile, linear gradient 10% to 90% acetonitrile
- Description: In table 1, the log P values were determined in accordance with EEC Directive 79/831 Annex V.A8 by HPLC (High Performance Liquid Chromatography) on a reversed-phase column (C 18), using the method described below: Temperature: 40° C.; Mobile phases: 0.1% aqueous formic acid and acetonitrile; linear gradient from 10% acetonitrile to 90% acetonitrile. […]
observation-type: logP
I'd appreciate a reply containing only the number, no unit.

Worked cases, logP given:
{"molecule": "Cn1nc(C(F)F)c(C(=O)N(Cc2cc(F)ccc2C2(C)CC2(Cl)Cl)C2CC2)c1F (racemic)", "logP": 4.09}
{"molecule": "Cn1nc(C(F)F)c(C(=O)N(Cc2cc(Cl)c(Cl)cc2C2(C)CC2)C2CC2)c1Cl", "logP": 4.93}
{"molecule": "Cc1ccc(C2(C(F)(F)F)CC2)c(CN(C(=O)c2c(C(F)F)nn(C)c2F)C2CC2)c1", "logP": 4.11}

Now, please, on to the next molecule.
# input Dear colleague, I am looking for the recorded logP of the following molecule: `Cn1nc(C(F)F)c(C(=O)N(Cc2cc(F)ccc2C2(C(F)(F)F)CC2)C2CC2)c1Cl`
# output 3.96
